Experiment: soluble on expression in E. coli; label from the status in PepcDB or PDB records

{"SEQUENCE_CHAIN": "MSLTTLKCVMQWTWRKTPERTIEVHKKNVNALKLLLIGSPGREQSYTPRDKRSNMHFLKKLGDFQDLEHTVDALKDWHTREKADAVLGLGDMLGLPGATTVRDERFQKKWHDIFIKDAGLDIPWLMTLGDADSVLSPSSQIRYHYSVQQKNWHMPNDYYTVNFKFGANLTLANGMFEETAFNATVIAINTWDLFVGNPVANNMASWTNKLWWLSEQLYQATQKNSSWIIVMGHHPMLSTGTEGEQARLQNIDDLSKSRRSRGLESFLINTLFMHYQVDAYVSGHDHLMEYNSITDVDRNVTVEGHHHHHH", "soluble on expression in E. coli": "not soluble"}
{"SEQUENCE_CHAIN": "MEYDVYVRVSKEDVHLLNYLLEVEEHMFNIRKYEDGVLKIITPFPEEAIKLLEGCKEMVDLEILEVKENPGEA", "soluble on expression in E. coli": "soluble"}
{"SEQUENCE_CHAIN": "MGSDKIHHHHHHMATDASGGVGEKAKDHVHVPYEVVSYYAARVALLECMSVGATPFTFLVQNFSGDEPYQKMIDGINRALGEANQAQATIAGSTESNMVLEQSCLGVTVIGRVHQSALKIGITPKDAGIALLGKPLVGEEVVSQEKDVFPLKQFDELLQEEGVYEIIPVGSKGVKYELEVLAATNEWNTLQVPVNGNVDLTKSSGPATSLLITFDGTMEALLKAKYSSWWTTLASKIST", "soluble on expression in E. coli": "not soluble"}
{"SEQUENCE_CHAIN": "MKKDIGDHLISKLDLQDIAKVLSDELSGSELNTVLLDIFNKRVQQETPSSLLSKYEGNKLVKPALLEDVLEYKEKELRCYKLIAGRGFEPIELSPVAQFGTNSVIATVDQKKVLTSLRNTEVQADPTNTIALHYASLKKKGELDNKTYNYSNISRVIRTQVFNNPNFTPHFTVLALISCGRDTGSFNFEKEELLKHLTTSYEICKSYGVEKIYYEIIPCKGYDSQSPLIMESISYVRKKNSNLEVLVIAPEHDNNYYHGFRIKQQIVIGGNTIEIADGGLLDWTQQLLTNKKERMMTFGLGIQVLYHLTK", "soluble on expression in E. coli": "soluble"}
